Each entry below carries its reported pIC50.
biological target: FL-SMARCA4 (Homo sapiens, UniProt P51532); assay: SMARCA4 ATPase activity assay (ADP-Glo, chicken mononucleosome substrate); conditions: FL-SMARCA4 IC50, Table 3.2; ATPase assay, enzyme 5 nM, ATP 250 uM, chicken mononucleosome 10 nM, 30 min preincubation
Sequence (P51532 whole entry): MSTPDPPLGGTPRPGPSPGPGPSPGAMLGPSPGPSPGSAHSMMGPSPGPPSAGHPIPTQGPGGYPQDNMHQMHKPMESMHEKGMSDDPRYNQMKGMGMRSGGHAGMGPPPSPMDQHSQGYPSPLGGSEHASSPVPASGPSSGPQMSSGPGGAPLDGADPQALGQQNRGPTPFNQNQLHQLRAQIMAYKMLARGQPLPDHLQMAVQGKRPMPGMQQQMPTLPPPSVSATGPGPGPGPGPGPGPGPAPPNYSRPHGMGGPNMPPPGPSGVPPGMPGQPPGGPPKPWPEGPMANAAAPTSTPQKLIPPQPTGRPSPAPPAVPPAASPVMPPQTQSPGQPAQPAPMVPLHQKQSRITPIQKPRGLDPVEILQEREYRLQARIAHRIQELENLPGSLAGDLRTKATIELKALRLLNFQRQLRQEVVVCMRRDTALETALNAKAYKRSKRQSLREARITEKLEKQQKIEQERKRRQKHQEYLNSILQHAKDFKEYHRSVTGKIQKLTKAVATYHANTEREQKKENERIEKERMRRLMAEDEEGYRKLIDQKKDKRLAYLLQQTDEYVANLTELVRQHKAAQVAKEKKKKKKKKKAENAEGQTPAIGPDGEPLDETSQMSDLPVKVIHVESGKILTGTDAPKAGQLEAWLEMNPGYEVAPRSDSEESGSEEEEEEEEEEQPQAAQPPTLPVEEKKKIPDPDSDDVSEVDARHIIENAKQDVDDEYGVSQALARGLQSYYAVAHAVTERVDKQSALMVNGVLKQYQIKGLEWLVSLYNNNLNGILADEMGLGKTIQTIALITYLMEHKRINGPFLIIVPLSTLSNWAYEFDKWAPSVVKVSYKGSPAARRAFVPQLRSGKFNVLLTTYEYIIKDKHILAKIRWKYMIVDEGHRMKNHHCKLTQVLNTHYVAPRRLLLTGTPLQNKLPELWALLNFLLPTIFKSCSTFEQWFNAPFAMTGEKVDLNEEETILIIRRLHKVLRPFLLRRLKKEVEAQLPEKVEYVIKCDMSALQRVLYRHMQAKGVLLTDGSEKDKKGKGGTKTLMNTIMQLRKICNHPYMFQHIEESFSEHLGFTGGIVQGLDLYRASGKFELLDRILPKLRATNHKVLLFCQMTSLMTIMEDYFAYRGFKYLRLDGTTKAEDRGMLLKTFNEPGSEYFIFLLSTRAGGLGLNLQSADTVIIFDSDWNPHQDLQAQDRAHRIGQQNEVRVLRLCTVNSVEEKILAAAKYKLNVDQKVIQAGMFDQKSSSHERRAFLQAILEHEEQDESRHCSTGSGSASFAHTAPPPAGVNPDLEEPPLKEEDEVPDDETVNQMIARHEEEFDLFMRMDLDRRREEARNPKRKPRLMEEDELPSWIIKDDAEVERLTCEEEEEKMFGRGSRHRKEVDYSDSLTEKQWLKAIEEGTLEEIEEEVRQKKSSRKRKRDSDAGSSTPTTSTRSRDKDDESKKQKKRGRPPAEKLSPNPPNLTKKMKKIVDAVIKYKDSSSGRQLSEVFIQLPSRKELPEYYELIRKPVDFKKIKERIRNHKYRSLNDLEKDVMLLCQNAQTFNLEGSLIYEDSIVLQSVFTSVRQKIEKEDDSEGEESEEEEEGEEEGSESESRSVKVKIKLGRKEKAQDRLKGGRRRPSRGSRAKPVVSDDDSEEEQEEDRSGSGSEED
Scale: pIC50 equals -log10([C]), with [C] in mol/L.

Here's what some known entries look like.
compound=CCn1cc(NC(=O)c2cc(Cl)c(C#N)s2)cc(F)c1=O assay_target="FL-SMARCA4 (Homo sapiens, UniProt P51532)" readout_label=pIC50 value=6.79
compound=CCn1cc(NC(=O)c2cc(C#CCO)c(Cl)s2)ccc1=O assay_target="FL-SMARCA4 (Homo sapiens, UniProt P51532)" readout_label=pIC50 value=5.22
compound=N#Cc1sc(C(=O)Nc2ccc(=O)n(CCF)c2)cc1Cl assay_target="FL-SMARCA4 (Homo sapiens, UniProt P51532)" readout_label=pIC50 value=6.52
compound="CC(F)Cn1cc(NC(=O)c2cc(Cl)c(C(F)(F)F)s2)cc(F)c1=O (stereo not shown)" assay_target="FL-SMARCA4 (Homo sapiens, UniProt P51532)" readout_label=pIC50 value=6.03

Request: Can you look up pIC50 on FL-SMARCA4 (Homo sapiens, UniProt P51532) for `O=C(Nc1ccc(=O)n(CC(F)(F)F)c1)c1cc(Cl)n[nH]1` ?
Result: 4.92

Request: For FL-SMARCA4 (Homo sapiens, UniProt P51532), provide pIC50 of `O=C(Nc1cc(F)c(=O)n(CCF)c1)c1cc(Cl)c(C#CCN2CCCC2)s1` please.
Result: 4.33

Request: Which measured pIC50 belongs to `O=C(Nc1cc(NCCN2CCOCC2)c(=O)n(CCF)c1)c1cc(Cl)c(Cl)s1` , tested on FL-SMARCA4 (Homo sapiens, UniProt P51532)?
Result: 4.67

Request: Observed pIC50 on FL-SMARCA4 (Homo sapiens, UniProt P51532) for `O=C(Nc1cc(F)c(=O)n(CC(F)F)c1)c1cc(Cl)c(C(F)F)s1` , please.
Result: 6.28

Request: For the record `O=C(Nc1cc(F)c(=O)n(CCF)c1)c1cnc(C(F)F)s1` , what value of pIC50 is listed for FL-SMARCA4 (Homo sapiens, UniProt P51532)?
Result: 6.13

Data provenance: patent US20220356174A1
